Biological target: hTRPV3 (Homo sapiens (Human), UniProt Q8NET8)
Sequence (Q8NET8 whole entry): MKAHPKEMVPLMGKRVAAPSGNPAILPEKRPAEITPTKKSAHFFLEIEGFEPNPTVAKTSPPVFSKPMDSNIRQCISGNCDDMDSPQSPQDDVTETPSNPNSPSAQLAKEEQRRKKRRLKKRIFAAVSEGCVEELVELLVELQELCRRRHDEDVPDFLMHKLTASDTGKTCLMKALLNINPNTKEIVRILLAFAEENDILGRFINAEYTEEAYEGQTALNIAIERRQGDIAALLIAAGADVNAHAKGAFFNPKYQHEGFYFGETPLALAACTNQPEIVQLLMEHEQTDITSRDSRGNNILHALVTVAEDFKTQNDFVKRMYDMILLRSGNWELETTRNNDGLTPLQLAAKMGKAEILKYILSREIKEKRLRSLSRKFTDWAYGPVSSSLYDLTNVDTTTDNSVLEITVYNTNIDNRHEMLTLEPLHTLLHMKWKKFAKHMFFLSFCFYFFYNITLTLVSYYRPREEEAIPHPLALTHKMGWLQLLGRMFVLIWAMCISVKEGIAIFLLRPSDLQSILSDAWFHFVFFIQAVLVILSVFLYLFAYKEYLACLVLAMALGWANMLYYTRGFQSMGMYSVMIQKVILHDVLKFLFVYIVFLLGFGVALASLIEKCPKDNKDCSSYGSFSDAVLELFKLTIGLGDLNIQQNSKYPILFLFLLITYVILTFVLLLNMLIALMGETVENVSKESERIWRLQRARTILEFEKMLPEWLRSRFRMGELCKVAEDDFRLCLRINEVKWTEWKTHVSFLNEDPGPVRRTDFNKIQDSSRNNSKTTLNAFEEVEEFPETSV
Assay: Whole-cell patch clamp, hTRPV3 Phase 1 / Phase 2 currents
Assay type: cell-based
Details: Phase 1 current, inward, whole-cell patch clamp; read-out: hTRPV3 Patch P1 Inwd
Structures can show the parent of a compound that is named as a salt.
Field: IC50. Provide a value for each of the compounds that follow.

Which value of IC50 has been reported for "OCc1ccc(Oc2ccccc2Cl)cc1N1CC[C@H](Oc2ncccc2Cl)C1" in the records?
0.01 to 0.1 µM

Follow-up entry: COCc1ccccc1-c1ccc(C2CCN(C(=O)c3ccc(F)cn3)C2)c(CO)c1 (stereo not shown)
0.1 to 1 µM

How about this compound: COC(C)c1ccccc1Oc1ccc(N2CC[C@H](Oc3ccc(C)cn3)C2)c(CCO)c1 (stereo partly shown)
0.1 to 1 µM

How about NCc1ccccc1N1CC[C@H](Oc2ccc(C(F)(F)F)cn2)C1 [Compound 1-13, HCl salt] ?
> 1 µM

Please answer likewise for "FC(F)(F)c1ccc(O[C@@H]2CCN(c3ccccc3OCc3ccccc3)C2)nc1"
> 1 µM

What do we get for "O=C(c1ccc(N2CC[C@H](Oc3ccccn3)C2)c(CO)c1)c1ccccc1Cl" ?
> 1 µM

Can you check "CCc1ccccc1-c1ccc(N2CC[C@H](Oc3ccc(F)cn3)C2)c(CO)n1" next?
> 1 µM

Repeat with "N#Cc1ccccc1-c1ccc(N2CC[C@H](Oc3ccc(F)cn3)C2)c(CO)n1"
0.1 to 1 µM

Now try "CCc1ccccc1-c1ccc(N2CC[C@H](Oc3ccc(C(F)(F)F)cn3)C2)c(CO)n1" .
> 1 µM

One more compound: COC(c1ccc(F)cc1)c1ccc(N2CC[C@H](Oc3ncccc3Cl)C2)c(CO)c1 (stereo partly shown)
0.01 to 0.1 µM

What would you report for CC(C)c1ccccc1Oc1ccc(C2CCN(Cc3ccccn3)C2)c(CO)c1 (stereo not shown) ?
0.1 to 1 µM

Repeat with "Cc1ccc(C(=O)c2ccc(N3CC[C@H](Oc4ncccc4F)C3)c(CO)c2)cc1"
0.1 to 1 µM

Query "Cc1ccc(C(=O)c2ccc(N3CC[C@H](Oc4ncccc4Cl)C3)c(CCO)c2)cc1" next
0.1 to 1 µM

Follow-up entry: "NC(=O)c1cc(-c2ccncc2)ccc1N1CC[C@H](Oc2ccc(C(F)(F)F)cn2)C1"
> 1 µM

Further, for "OCc1ccc(-c2ccc(N3CC[C@H](Oc4ccc(C(F)(F)F)cn4)C3)c(CO)c2)cc1" ?
0.1 to 1 µM

What about "OCc1cc(-c2ccccc2)ccc1N1CC[C@H](Oc2nc(C(F)(F)F)cs2)C1" ?
> 1 µM

Again, but for "COc1ccccc1Oc1ccc(N2CC[C@H](Oc3ccccn3)C2)c(CO)c1"
0.1 to 1 µM

Can you check CCc1cccnc1Oc1ccc(C2CCN(C(=O)c3ccc(F)cn3)C2)c(CO)c1 (stereo not shown) next?
> 1 µM

Thanks! And "O=[N+]([O-])c1ccccc1N1CC[C@H](Oc2ccc3cc(Cl)ccc3n2)C1" ?
> 1 µM

Then what about the compound "CC(C)Oc1ccccc1N1CC[C@H](Oc2ccc3cc(Cl)ccc3n2)C1" ?
> 1 µM

Also need "Cc1ccccc1Oc1ccc(N2CC[C@H](Oc3ncccc3Cl)C2)c(CCO)c1" , thanks.
0.01 to 0.1 µM

And then O=C(c1ncccc1Cl)N1CCC(c2ccc(C(O)c3ccc(F)cc3)cc2CO)C1 (stereo not shown) , what is it?
> 1 µM

Next record, please: "CCc1ccccc1C(=O)c1ccc(N2CC[C@H](Nc3ncccc3Cl)C2)c(CO)c1"
0.1 to 1 µM

Another compound to look at: "OCc1cc(-c2ccccn2)ccc1N1CC[C@H](Oc2ccc(C(F)(F)F)cn2)C1"
> 1 µM

Consider next the compound "Cc1ccccc1-c1ccc(CO)c(N2CC[C@H](Oc3ccc(C(F)(F)F)cn3)C2)c1" in the same way.
0.1 to 1 µM

Also, CC(C)c1ccccc1Oc1ccc(C2CCN(C(=O)c3ccc(F)cn3)C2)c(CO)c1 (stereo not shown) please.
0.01 to 0.1 µM

Continue with CCc1ccccc1-c1ccc(C2CCN(C(=O)c3ccc(Cl)cn3)C2)c(CO)c1 (stereo not shown)
< 0.01 µM

CCc1cncnc1Oc1ccc(C2CCN(C(=O)c3ncccc3Cl)C2)c(CO)c1 (stereo not shown) ?
> 1 µM

Reference for the values: patent US12435061B2
